The molecules listed here are annotated with their Dose.FC.CTG.
# System: ISC-enriched organoids
# Method description: Primary screen, 384-well 2.5-D organoid differentiation (ENR+CD, 6 days, Target Selective Inhibitor Library, vs whole-plate median): ATP (CellTiter-Glo 3D, CTG)
# Conditions used: Dose 10.00 uM; primary screen, FC vs plate median
Property label: Dose.FC.CTG (log 2 fold change)

Molecule	Tested system	Property label	Val
CC(C)c1ccc(NC(=O)Cn2cnc3c2c(=O)n(C)c(=O)n3C)cc1 [HC-030031]	ISC-enriched organoids	Dose.FC.CTG	−0.241
CCCCc1nc(Cl)c(CO)n1Cc1ccc(-c2ccccc2-c2nnn[n-]2)cc1.[K+] [Losartan Potassium (DuP 753)]	ISC-enriched organoids	Dose.FC.CTG	−0.137
CC(=O)c1cc([N+](=O)[O-])c(Sc2ccc(F)cc2F)s1 [P22077]	ISC-enriched organoids	Dose.FC.CTG	−0.130
CC(C)c1onc(-c2c(Cl)cccc2Cl)c1COc1ccc(/C=C/c2cccc(C(=O)O)c2)c(Cl)c1 [GW4064]	ISC-enriched organoids	Dose.FC.CTG	−0.157
CC(=O)O[C@H]1C[C@@H]2CC[C@@H]3[C@H](CC[C@@]4(C)[C@H]3C[C@H]([N+]3(C)CCCCC3)[C@@H]4OC(C)=O)[C@@]2(C)C[C@@H]1[N+]1(C)CCCCC1.[Br-].[Br-] [Pancuronium dibromide]	ISC-enriched organoids	Dose.FC.CTG	0.062
CC(C)(C)c1cc(C(C)(C)C)c(NC(=O)c2c[nH]c3ccccc3c2=O)cc1O [Ivacaftor (VX-770)]	ISC-enriched organoids	Dose.FC.CTG	−0.470
CC(C)CCNC(=O)[C@H](CC(C)C)NC(=O)[C@H]1O[C@@H]1C(=O)O [Loxistatin Acid (E-64C)]	ISC-enriched organoids	Dose.FC.CTG	0.094
COc1ccc(-c2cnc3c(-c4cccc5ncccc45)cnn3c2)cc1 [ML347]	ISC-enriched organoids	Dose.FC.CTG	−0.169
CC1=C(C(=O)Nc2cc3cn[nH]c3cc2F)C(c2ccc(C(F)(F)F)cc2)CC(=O)N1 (stereo not shown) [GSK429286A]	ISC-enriched organoids	Dose.FC.CTG	0.370
Cc1cnc(NC(=O)Nc2cc(Br)c(C)cc2OC[C@@H]2CNCCO2)cn1 [LY2603618]	ISC-enriched organoids	Dose.FC.CTG	−0.983
O=C(NNc1ccccc1)c1ccncc1 [PluriSIn #1 (NSC 14613)]	ISC-enriched organoids	Dose.FC.CTG	−0.853
O=C1[C@H](Cc2ccc(O)cc2)N2C(=O)CCN(C(=O)NCc3ccccc3)[C@H]2CN1Cc1cccc2ccccc12 [ICG-001]	ISC-enriched organoids	Dose.FC.CTG	−0.416
Cc1ccc(NC(=O)c2ccc(CN3CCN(C)CC3)cc2)cc1Nc1nccc(-c2cccnc2)n1 [Imatinib (STI571)]	ISC-enriched organoids	Dose.FC.CTG	−0.034

====

# Tested on: ISC-enriched organoids
# Method description: Primary screen, 384-well 2.5-D organoid differentiation (ENR+CD, 6 days): carbachol-induced lysozyme secretion (LYZ.S)
# Assay type: cell-based, murine
# Conditions used: strictly standardized mean difference; primary screen; 4th of the 4 dose lines of the treatment (dose not given)

Compound	SSMD.LYZ.S
Cl.Cl.NC1(c2ccc(-c3nc4ccn5c(=O)[nH]nc5c4cc3-c3ccccc3)cc2)CCC1 [MK-2206 2HCl]	−1.628
COc1ccc(-c2cnc3c(-c4cccc5ncccc45)cnn3c2)cc1 [ML347]	−1.245
CCN(CC)CC(=O)Nc1c(C)cccc1C [Lidocaine]	−0.070
CCOC(=O)N1CCC(=C2c3ccc(Cl)cc3CCc3cccnc32)CC1 [Loratadine]	−1.029
O=[N+]([O-])C=Cc1ccc2c(c1)OCO2	−0.676
O=C1[C@H](Cc2ccc(O)cc2)N2C(=O)CCN(C(=O)NCc3ccccc3)[C@H]2CN1Cc1cccc2ccccc12 [ICG-001]	−0.824
c1cc(-c2cnn3cc(-c4ccc(N5CCNCC5)cc4)cnc23)c2cccnc2c1 [LDN-212854]	−1.672
C#Cc1cccc(Nc2ncnc3cc4c(cc23)OCCOCCOCCO4)c1 [Icotinib]	−1.917
O=C(O)c1ccc(Nc2ncc3c(n2)-c2ccc(Cl)cc2C(c2c(F)cccc2F)=NC3)cc1 [MLN8054]	−0.964
Nc1nc(OCc2cc(Br)cs2)c2[nH]cnc2n1 [Lomeguatrib]	−0.820

====

# Test system: ISC-enriched organoids
# Method description: Primary screen, 384-well 2.5-D organoid differentiation (ENR+CD, 6 days): basal lysozyme secretion (LYZ.NS)
# Type: cell-based, murine
# Conditions used: dose 0.08 uM
Z.LYZ.NS (standard z score) overview

Compound	Z.LYZ.NS (standard z score)
N#C[C@@H]1CCCN1C(=O)CNC12CC3CC(CC(O)(C3)C1)C2	1.285
NC(=O)Nc1sc(-c2ccc(F)cc2)cc1C(N)=O	0.627
O=C(O[C@H]1C[C@H]2CC[C@@H](C1)[N+]21CCCC1)C(O)(c1ccccc1)c1ccccc1 [Trospium chloride]	1.470
COc1ccc2cc(-c3nc(-c4ccc([S+](C)[O-])cc4)[nH]c3-c3ccncc3)ccc2c1 (stereo not shown)	0.080
CN(C)CCCCC(=O)Nc1ccc(NC(=S)NC(=O)c2ccc(C(C)(C)C)cc2)cc1	1.050
C[C@H](Cn1cnc2c(N)ncnc21)OCP(=O)(O)O	0.673
CCCCNc1ncc(-c2ccc(CN3CCOCC3)cn2)c(NC2CCC(O)CC2)n1 (stereo not shown)	1.005

====

The following molecules are listed with their measured Dose.FC.CTG values.
# Tested on: ISC-enriched organoids
# Method description: Primary screen, 384-well 2.5-D organoid differentiation (ENR+CD, 6 days, Target Selective Inhibitor Library, vs whole-plate median): ATP (CellTiter-Glo 3D, CTG)
# Conditions used: Dose 0.40 uM; primary screen, FC vs plate median

Molecule	Tested system	Dose.FC.CTG
COc1cc(-n2c(=S)[nH]c3ccccc3c2=O)c(Cl)cc1Cl	ISC-enriched organoids	−0.031 log 2 fold change
C[C@](O)(COc1ccc(C#N)cc1)C(=O)Nc1ccc(C#N)c(C(F)(F)F)c1	ISC-enriched organoids	−0.198 log 2 fold change
O=C(Nc1cccnc1)N1CCC(Cc2cccc(Oc3ccc(C(F)(F)F)cn3)c2)CC1	ISC-enriched organoids	0.052 log 2 fold change
NC(=O)c1ccc(I)c([N+](=O)[O-])c1	ISC-enriched organoids	0.181 log 2 fold change
CCc1cc(Nc2nccc(-c3c(-c4ccc(OC)c(C(=O)Nc5c(F)cccc5F)c4)nc4ccccn34)n2)c(OC)cc1N1CCC(N2CCN(S(C)(=O)=O)CC2)CC1 [GSK1904529A]	ISC-enriched organoids	−0.071 log 2 fold change
CCn1c(-c2nonc2N)nc2c(C#CC(C)(C)O)ncc(OC[C@H]3CCCNC3)c21	ISC-enriched organoids	0.197 log 2 fold change
O=C(NCCN1CCOCC1)c1ccc(Cl)cc1 [Moclobemide (Ro 111163)]	ISC-enriched organoids	0.106 log 2 fold change
O=[N+]([O-])C=Cc1ccc2c(c1)OCO2	ISC-enriched organoids	0.061 log 2 fold change
Cc1ccc(NCCCc2ccccc2)c(N)c1	ISC-enriched organoids	0.230 log 2 fold change
CCc1cncnc1N1CCN(Cc2nc3ccc(C(F)(F)F)cc3[nH]2)CC1	ISC-enriched organoids	0.268 log 2 fold change
CCc1c(C(=O)NCCc2ccc(N3CCCCC3)cc2)[nH]c2ccc(Cl)cc12	ISC-enriched organoids	0.072 log 2 fold change
Fc1cc(F)c2c(c1)[C@H]1C=CC[C@H]1C(c1cccnc1)N2 (mixture of isomers) [Golgicide A]	ISC-enriched organoids	0.227 log 2 fold change
O=C(O)CCc1ccc(NCc2cccc(Oc3ccccc3)c2)cc1	ISC-enriched organoids	0.174 log 2 fold change
COc1ccc(CNCc2cccc3ccccc23)cc1.Cl [ML133 HCl]	ISC-enriched organoids	−0.151 log 2 fold change
CC(C)c1ccc(NC(=O)Cn2cnc3c2c(=O)n(C)c(=O)n3C)cc1	ISC-enriched organoids	0.191 log 2 fold change
CC[C@@H]1/C=C/C=C/C[C@H](C)[C@H](O)[C@](C)(O)C(=O)[C@H](C)[C@@H](O)[C@H](C)C(=O)[C@H](C)[C@@H](O)[C@H](C)/C=C/C(=O)O[C@H]2[C@@H](C)[C@@H](CC1)O[C@@]1(CC[C@@H](C)[C@@H](C[C@H](C)O)O1)[C@@H]2C	ISC-enriched organoids	−0.706 log 2 fold change
O=C(Nc1cc(C(F)(F)F)cc(C(F)(F)F)c1)c1cc(Cl)ccc1O	ISC-enriched organoids	0.117 log 2 fold change
Cc1ccc(S(=O)(=O)c2ccc([N+](=O)[O-])o2)cc1	ISC-enriched organoids	−0.014 log 2 fold change

====

# Tested on: ISC-enriched organoids
# Method description: Primary screen, 384-well 2.5-D organoid differentiation (ENR+CD, 6 days): carbachol-induced lysozyme secretion (LYZ.S)
# Type: cell-based, murine
# Conditions used: dose 2.00 uM (3rd of 4 lines per treatment; dose not printed in this part)
Property label: SSMD.LYZ.S_Rep (strictly standardized mean difference)

Compound	Val
CC(C)N(CC[C@H](c1ccccc1)c1cc(CO)ccc1O)C(C)C	−0.217
CN1CCc2cc3c(cc2[C@H]1[C@@H]1OC(=O)c2c1ccc1c2OCO1)OCO3 [(+)-Bicuculline]	−0.164
O=C(O)c1ccc(N2C(=O)/C(=C\c3ccc(-c4ccc([N+](=O)[O-])cc4)o3)C=C2c2ccccc2)cc1	0.311
COc1cc2c(cc1O)CC[C@@H]1[C@@H]2CC[C@]2(C)[C@@H](O)CC[C@@H]12	0.144

Data credit: patent US20230398130A1
